Where these numbers come from: PubChem BioAssay (NCATS)

Test: qHTS for Inhibitors of the Functional Ribonucleoprotein Complex (vRNP) of Lymphocytic Choriomeningitis Arenaviruses (LCMV): Viability assay - alamar blue signal for LCMV Primary Screen (AID 1347085); also: nearly all actives have a fitted effect of over 80% in size; also: potency is read from the fitted curve at half-maximal effect
Settings: alamar blue viability counter-screen, LCMV vRNP screen cells; series mostly up to 57.5 µM
Records with an inconclusive call do not appear. Activity calls are given as the source filed them. Calls follow the shape of the full dose curve; tested in HEK293 reporter line.
Outcome Measure: Potency

| Compound | Potency |
| --- | --- |
| COc1ccc(-c2ccc3cc(C(=O)O)ccc3c2)cc1C12CC3CC(CC(C3)C1)C2 | inactive |
| NC(Cc1ccc(Cl)cc1)C(=O)O (stereo not given) | inactive |
| CC(C)(C)NCC(O)c1cc(O)cc(O)c1 (stereo not given) | inactive |
| CC(=O)OCC(=O)[C@H]1CC[C@H]2[C@@H]3CCC4=CC(=O)CC[C@]4(C)[C@H]3CC[C@]12C | inactive |
| O=P1(N(CCCl)CCCl)NCCCO1 (stereo not given) | inactive |

Query: Would you mind telling me what Potency value was observed for Oc1ccccc1-c1nnco1 ?
Result: inactive

Query: Would you mind telling me what Potency value was observed for CN(C)c1ccc2nc3ccc(=[N+](C)C)cc-3sc2c1 ?
Result: 24.3 µM (active)

Query: Would you mind telling me what Potency value was observed for COc1ccc2cc1Oc1cc3c(cc1OC)CC[N+](C)(C)[C@H]3Cc1ccc(cc1)Oc1c(OC)c(OC)cc3c1[C@@H](C2)[N+](C)(C)CC3 ?
Result: inactive

Query: Would you mind telling me what Potency value was observed for CCc1cc2c(s1)-n1c(C)nnc1CN=C2c1ccccc1Cl ?
Result: inactive

Query: Would you mind telling me what Potency value was observed for OC[C@H]1O[C@@H](n2cnc3c2NC=NC[C@H]3O)C[C@@H]1O ?
Result: inactive

Query: Would you mind telling me what Potency value was observed for COc1ccc2nc(SCc3ncc(C)c(OC)c3C)[nH]c2c1 ?
Result: inactive

Query: Would you mind telling me what Potency value was observed for N=C(N)N ?
Result: inactive

Query: Would you mind telling me what Potency value was observed for CC(C)C(=O)Nc1cccc(C(F)(F)F)c1 ?
Result: inactive

Query: Would you mind telling me what Potency value was observed for O=c1[nH]c(=O)n([C@H]2CCCO2)cc1F ?
Result: inactive

Query: Would you mind telling me what Potency value was observed for O=C(O)c1cc(=O)c2c(OCC(O)COc3cccc4oc(C(=O)O)cc(=O)c34)cccc2o1 ?
Result: inactive

Query: Would you mind telling me what Potency value was observed for CCCCCCCCCCC[C@@H](C[C@@H]1OC(=O)[C@H]1CCCCCC)OC(=O)[C@H](CC(C)C)NC=O ?
Result: inactive

Query: Would you mind telling me what Potency value was observed for COc1ccc(/C(C)=C/C(=O)O)c(OC)c1 ?
Result: inactive

Query: Would you mind telling me what Potency value was observed for N#CCC(=O)NN ?
Result: inactive

Query: Would you mind telling me what Potency value was observed for CC(C(=O)O)c1ccc(C(=O)c2ccccc2)s1 (stereo not given) ?
Result: inactive

Query: Would you mind telling me what Potency value was observed for O=C(N[C@H](CO)[C@H](O)c1ccc([N+](=O)[O-])cc1)C(Cl)Cl ?
Result: inactive

Query: Would you mind telling me what Potency value was observed for O=S(=O)(O)c1cc(I)c(O)c2ncccc12 ?
Result: inactive

Query: Would you mind telling me what Potency value was observed for O=P(O)(O)OCC(O)CO (stereo not given) ?
Result: inactive

Query: Would you mind telling me what Potency value was observed for CCN(CC)CC#CCOC(=O)C(O)(c1ccccc1)C1CCCCC1 (stereo not given) ?
Result: inactive

Query: Would you mind telling me what Potency value was observed for O=C1c2ccccc2C(=O)c2ccccc21 ?
Result: inactive

Query: Would you mind telling me what Potency value was observed for Cc1ncsc1CCCl ?
Result: inactive
